Measured pKi on Cannabinoid receptor 1 (Homo sapiens, UniProt P21554) follows.
Sequence (P21554 whole entry): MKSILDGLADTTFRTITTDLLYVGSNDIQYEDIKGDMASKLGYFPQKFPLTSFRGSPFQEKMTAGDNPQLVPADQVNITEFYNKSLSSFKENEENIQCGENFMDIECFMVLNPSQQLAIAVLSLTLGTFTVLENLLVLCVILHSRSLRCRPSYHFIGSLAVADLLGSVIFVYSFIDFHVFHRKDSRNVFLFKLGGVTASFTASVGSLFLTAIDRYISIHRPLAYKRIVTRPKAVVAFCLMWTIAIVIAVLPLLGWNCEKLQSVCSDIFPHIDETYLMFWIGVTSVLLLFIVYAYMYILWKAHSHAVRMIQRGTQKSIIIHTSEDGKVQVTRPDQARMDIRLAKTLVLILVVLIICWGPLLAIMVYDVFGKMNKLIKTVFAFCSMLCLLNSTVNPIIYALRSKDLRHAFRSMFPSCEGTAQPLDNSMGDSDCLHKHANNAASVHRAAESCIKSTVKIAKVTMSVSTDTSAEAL
Answers are plain numbers, as −log10 of the molar value.

CN/C(=N\S(=O)(=O)N1CCCCCC1)N1CC(c2ccccc2)C(c2ccc(Cl)cc2)=N1 (centres undefined): 6.81
CCN(CC)S(=O)(=O)NC(=NC)N1CC(c2cccnc2)C(c2ccc(Cl)cc2)=N1 (centres undefined): 6.85
CCN(C)S(=O)(=O)NC(=NC)N1CC(c2ccccc2)C(c2ccc(Cl)cc2)=N1 (centres undefined): 6.93
CNC(=NS(=O)(=O)N1CCCCCCC1)N1CC(c2ccccc2)C(c2ccc(Cl)cc2)=N1 (centres undefined): 6.90
CC/N=C(\NS(=O)(=O)N(CC)CC)N1CC(c2ccccc2)C(c2ccc(Cl)cc2)=N1 (centres undefined): 6.68

// for each compound in input: emit pKi
1. C/N=C(\NS(=O)(=O)N(C)C(C)C)N1CC(c2ccccc2)C(c2ccc(Cl)cc2)=N1 (centres undefined)
2. C/N=C(\NS(=O)(=O)N1CCSCC1)N1CC(c2ccccc2)C(c2ccc(Cl)cc2)=N1 (centres undefined)
3. CCN(CC)S(=O)(=O)N/C(=N\C)N1CC(c2ccccc2)C(c2ccc(Cl)cc2)=N1 (centres undefined)
4. CCN(CC)S(=O)(=O)N=C(NC(C)C)N1CC(c2ccccc2)C(c2ccc(Cl)cc2)=N1 (centres undefined)

[7.49, 7.62, 7.52, 7.22]

====

Provide the reported Ki of each item.
molecular target: Cannabinoid receptor 2 (Homo sapiens); test: Displacement of specific CP-55940 binding in CHO cells stably transfected with human cannabinoid receptor 2
Sequence (P34972 whole entry): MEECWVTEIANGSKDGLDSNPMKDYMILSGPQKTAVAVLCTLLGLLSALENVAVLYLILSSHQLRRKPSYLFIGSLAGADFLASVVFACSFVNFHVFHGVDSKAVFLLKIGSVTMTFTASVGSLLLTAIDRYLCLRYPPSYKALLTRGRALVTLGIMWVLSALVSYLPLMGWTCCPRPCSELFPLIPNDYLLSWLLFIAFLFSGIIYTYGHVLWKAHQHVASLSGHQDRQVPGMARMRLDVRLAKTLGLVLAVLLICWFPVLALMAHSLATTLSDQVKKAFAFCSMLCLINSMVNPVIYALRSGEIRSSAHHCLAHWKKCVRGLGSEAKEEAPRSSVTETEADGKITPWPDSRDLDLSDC

CCN(CC)S(=O)(=O)N/C(=N\C)N1CC(c2ccccc2)C(c2ccc(Cl)cc2)=N1 (stereo not drawn): 3270 nM
CNC(=NS(=O)(=O)N1CCCCCCC1)N1CC(c2ccccc2)C(c2ccc(Cl)cc2)=N1 (stereo not drawn): 2580 nM
C/N=C(\NS(=O)(=O)N(C)C(C)C)N1CC(c2ccccc2)C(c2ccc(Cl)cc2)=N1 (stereo not drawn): 1130 nM
C/N=C(\NS(=O)(=O)N(C)C)N1CC(c2ccccc2)C(c2ccc(Cl)cc2)=N1 (stereo not drawn): 3830 nM
CCN(CC)S(=O)(=O)N=C(NC(C)C)N1CC(c2ccccc2)C(c2ccc(Cl)cc2)=N1 (stereo not drawn): 2750 nM

// for each molecule in input: emit Ki
1. C/N=C(\NS(=O)(=O)N1CCSCC1)N1CC(c2ccccc2)C(c2ccc(Cl)cc2)=N1 (stereo not drawn)
2. CN=C(NS(=O)(=O)N1CCCC1)N1CC(c2ccccc2)C(c2ccc(Cl)cc2)=N1 (stereo not drawn)
3. C/N=C(\NS(=O)(=O)N1CCOCC1)N1CC(c2ccccc2)C(c2ccc(Cl)cc2)=N1 (stereo not drawn)
4. CCN(C)S(=O)(=O)NC(=NC)N1CC(c2ccccc2)C(c2ccc(Cl)cc2)=N1 (stereo not drawn)
5. CN/C(=N\S(=O)(=O)N1CCCCCC1)N1CC(c2ccccc2)C(c2ccc(Cl)cc2)=N1 (stereo not drawn)
6. CNC(=NS(=O)(=O)N1CCCCC1)N1CC(c2ccccc2)C(c2ccc(Cl)cc2)=N1 (stereo not drawn)
7. CCN(CC)S(=O)(=O)NC(=NC)N1CC(c2cccnc2)C(c2ccc(Cl)cc2)=N1 (stereo not drawn)
8. CC/N=C(\NS(=O)(=O)N(CC)CC)N1CC(c2ccccc2)C(c2ccc(Cl)cc2)=N1 (stereo not drawn)

["3530 nM", "1600 nM", "5370 nM", "1870 nM", "1030 nM", "1320 nM", "9080 nM", "2860 nM"]

====

Provide the reported efflux ratio of each item.
molecular target: P-glycoprotein (ABCB1) (Homo sapiens, UniProt P08183); assay: P-glycoprotein-based membrane transport factor, expressed as the ratio of the bottom to top transport and top to bottom transport; details: not told
Sequence (P08183 whole entry): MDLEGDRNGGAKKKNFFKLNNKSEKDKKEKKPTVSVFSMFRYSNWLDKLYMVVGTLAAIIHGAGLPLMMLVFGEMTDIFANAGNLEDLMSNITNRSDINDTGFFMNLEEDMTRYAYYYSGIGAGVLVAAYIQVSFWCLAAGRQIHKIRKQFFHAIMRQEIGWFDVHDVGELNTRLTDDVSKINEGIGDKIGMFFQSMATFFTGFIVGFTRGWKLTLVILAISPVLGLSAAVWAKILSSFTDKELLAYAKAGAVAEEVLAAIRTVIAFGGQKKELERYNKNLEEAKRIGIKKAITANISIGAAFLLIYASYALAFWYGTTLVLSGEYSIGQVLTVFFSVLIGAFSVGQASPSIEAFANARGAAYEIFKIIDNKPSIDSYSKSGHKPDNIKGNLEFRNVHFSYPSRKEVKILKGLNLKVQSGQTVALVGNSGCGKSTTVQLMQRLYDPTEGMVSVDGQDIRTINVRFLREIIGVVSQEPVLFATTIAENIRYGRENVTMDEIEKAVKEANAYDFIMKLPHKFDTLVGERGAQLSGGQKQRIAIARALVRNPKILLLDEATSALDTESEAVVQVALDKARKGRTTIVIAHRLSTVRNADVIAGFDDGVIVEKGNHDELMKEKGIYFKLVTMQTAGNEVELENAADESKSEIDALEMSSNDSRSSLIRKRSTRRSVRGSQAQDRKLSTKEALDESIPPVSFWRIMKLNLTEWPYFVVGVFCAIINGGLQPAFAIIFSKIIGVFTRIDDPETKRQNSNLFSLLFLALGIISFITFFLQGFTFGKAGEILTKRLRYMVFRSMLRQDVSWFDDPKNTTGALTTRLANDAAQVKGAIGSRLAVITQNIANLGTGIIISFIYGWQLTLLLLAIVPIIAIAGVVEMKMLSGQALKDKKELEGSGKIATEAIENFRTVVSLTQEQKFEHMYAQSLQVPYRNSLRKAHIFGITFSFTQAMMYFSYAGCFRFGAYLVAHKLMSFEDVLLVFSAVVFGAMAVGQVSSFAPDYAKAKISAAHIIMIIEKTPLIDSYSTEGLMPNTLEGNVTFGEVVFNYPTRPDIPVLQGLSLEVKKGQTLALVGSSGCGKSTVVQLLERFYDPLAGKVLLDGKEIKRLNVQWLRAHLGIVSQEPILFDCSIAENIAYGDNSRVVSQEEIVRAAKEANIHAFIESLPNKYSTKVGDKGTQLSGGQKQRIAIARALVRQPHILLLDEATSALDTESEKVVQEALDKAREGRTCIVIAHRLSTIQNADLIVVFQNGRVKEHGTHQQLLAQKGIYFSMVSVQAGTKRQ
Give bare numbers.

Some solved entries appear below for comparison.
CN/C(=N\S(=O)(=O)N1CCCCC1)N1C[C@H](c2ccccc2)C(c2ccc(Cl)cc2)=N1: 1.4
CCN(CC)S(=O)(=O)N/C(=N\C)N1CC(c2ccccc2)C(c2ccc(Cl)cc2)=N1 (stereo not drawn): 1.5

// next entry
Could you share which efflux ratio value was measured for CCN(CC)S(=O)(=O)NC(=NC)N1CC(c2cccnc2)C(c2ccc(Cl)cc2)=N1 (stereo not drawn) ?
3.4
